These data points were gathered from PubChem BioAssay AID912.

assay: qHTS Assay for Anthrax Lethal Toxin Internalization; details: Cells, FRET ratio (460/530); series mostly up to 40 µM; note: % is set by controls: 0 for no effect and ±100 for the full control effect; nearly all actives have a fitted effect of over 50% in size
Hit rate of the full screen: of about 70,000 compounds, about 470 (0.67%) were called active. Inconclusive results (about 18%) are left out. The full list was thinned out, with actives kept by preference.
OBSERVATION_TYPE: activity change, negative = inhibition

Some solved entries appear below for comparison.
>  <MOLECULE>
Cn1c(C(=O)N2CCC(C(N)=O)CC2)cc2c(=O)n(C)c3ccccc3c21

>  <activity change, negative = inhibition>
inactive

$$$$
>  <MOLECULE>
O=C(COc1ccc2oc3c(c2c1)CCCC3)Nc1ccccn1

>  <activity change, negative = inhibition>
inactive

$$$$
>  <MOLECULE>
Cn1c(=O)c(C(=O)Nc2ncccn2)c(O)c2ccccc21

>  <activity change, negative = inhibition>
inactive

$$$$
>  <MOLECULE>
Cc1cccc(NC(=O)COc2ccccc2C)n1

>  <activity change, negative = inhibition>
inactive

$$$$
>  <MOLECULE>
COC(=O)CCCCCN1C(=O)NC(c2ccc(-c3ccccc3)cc2)C(C(=O)OCc2ccccc2)=C1C (stereo unspecified)

>  <activity change, negative = inhibition>
inactive

$$$$
>  <MOLECULE>
CCOC(=O)N1CCC(NC(=O)COc2cc(=O)n(C)c3ccccc23)CC1

>  <activity change, negative = inhibition>
inactive

$$$$
>  <MOLECULE>
COCCNC(=O)COc1ccc(C)c(C)c1

>  <activity change, negative = inhibition>
inactive

$$$$
>  <MOLECULE>
COCCn1c(=O)c(-c2cc(F)cc(F)c2)nc2cncnc21

>  <activity change, negative = inhibition>
inactive

$$$$
>  <MOLECULE>
COC(=O)[C@@]1(Cc2ccc(F)cc2)[C@H]2c3cc(C(=O)N4CCCC4)n(C[C@H](O)CO)c3C[C@H]2CN1C(=O)c1ccccc1

>  <activity change, negative = inhibition>
inactive

$$$$
>  <MOLECULE>
Cn1c(C(=O)NCCN2CCc3ccccc3C2)cc2c(=O)[nH]c3ccccc3c21

>  <activity change, negative = inhibition>
inactive

$$$$

I'm hoping you can list activity change, negative = inhibition for every molecule here, please.
1. COc1cccc([C@H]2Oc3ccc(OC)cc3/C(=N\OCC[C@@H]3C=C[C@H](OC(C)=O)[C@H](COC(C)=O)O3)[C@@H]2O)c1
2. CCC[C@@H]1C[C@@]1(CCC)[C@@H](NC(=O)c1ccccc1)c1ccc(C(=O)OC)cc1
3. CC(=O)OCC1OC(C#CCCCc2ccccc2)C=CC1OC(C)=O (stereo unspecified)

-2.18% [at 8 µM] (inactive)
inactive
-3.55% [at 8 µM] (inactive)
